test: NCI Yeast Anticancer Drug Screen. Data for the cln2 rad14 strain (AID 165);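 further: 0% = growth equal to vehicle treated cultures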; conditions: S. cerevisiae cln2 rad14 strain, at 50.0 µM, active compounds read high
Compounds without any hit were thinned out: in the full panel of roughly 79,000, 15% have a hit.
Below, each of the compounds is paired with its reported growth inhibition value.
Numeric answer only, unit % assumed.

Here are 10 compounds together with their reported answers.
CC(=O)c1cc(-c2ccc(C)cc2)nc2c(C)cc(C)cc12    76.8
N/N=C(\N)c1ccc2ccc3cccnc3c2n1    45.9
CC(C)C(=O)OCC(C)(C)C1OCC(C)(C)C(C(C)C)O1 (centres undefined)    9
CC(=O)Nc1ccc2c(c1)/C(=N/O)c1ccccc1-2    64.5
ON=C1c2ccccc2-c2ccccc21    -68.6
NC1CCCCC1N.O=S(=O)([O-])CCCN1CCN(CCO)CC1.O=S(=O)([O-])CCCN1CCN(CCO)CC1.[Pt+4]    -15.8
CC(C)SCC1CO1 (centres undefined)    47.5
S=C1Nc2cnc3ccccc3c2SC1c1ccccc1 (centres undefined)    90.3
O=C(O/N=C1/CCCC/C1=C\c1ccccc1)c1ccccc1    87
CCC[CH2][Sn]([CH2]CCC)([O]C(=O)C(OC(C)=O)c1ccccc1)[O]C(=O)C(OC(C)=O)c1ccccc1 (centres undefined)    96.4

Please fill in: growth inhibition reported for CN1c2ccccc2C(C)(C)C12C=Cc1cc(O)ccc1O2 (centres undefined) = 35.6

Please fill in: growth inhibition reported for O=c1cccccc1O = 85.7

Please fill in: growth inhibition reported for Cc1nc(Nc2c(C)cccc2C)c2c(C)c[nH]c2n1 = 27.2

Please fill in: growth inhibition reported for COc1ccc(C2Oc3c(cccc3OC)C=C2[N+](=O)[O-])cc1 (centres undefined) = -4.5

Please fill in: growth inhibition reported for CNC(=O)c1ccc(OC)cc1C1(O)c2ccccc2CCc2ccccc21 = 46.4

Please fill in: growth inhibition reported for NC(=S)N/N=C\c1nccc2c(C(F)(F)C(F)(F)C(F)(F)F)cccc12 = 69.6

Please fill in: growth inhibition reported for Cn1cc(NC(=O)c2cc(NC(=O)CCCCCCCCC(=O)Nc3cc(C(=O)Nc4cc(C(=O)NCCC(N)N)n(C)c4)n(C)c3)cn2C)cc1C(=O)NCCC(=N)N = 88

====

Assay: NCI Yeast Anticancer Drug Screen. Data for the cln2 rad14 strain (AID 165);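 further: 0% = growth equal to vehicle treated cultures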
Conditions: S. cerevisiae cln2 rad14 strain, at 5.0 µM (retest, dose inferred, filed as 0.5), active compounds read high
Protocol: Growth inhibition of yeast strains with defined genetic alterations is measured as a screen for potential anti-cancer activity. Selected strains with alterations in DNA damage repair or cell cycle control were exposed to compounds and growth inhibition was measured relative to vehicle treated controls. The strain used in this assay is cln2 rad14
This is part of a sample that, as a whole, favours compounds with a hit. Of some 79,000 tested, about 15% had one in any assay.
Below, each of the molecules is paired with its reported growth inhibition value.
Numeric answer only, unit % assumed.

Here are 5 molecules together with their reported answers.
C/C=C(\C)C(=O)OC1C(C)C2(O)C(C=C(CO)CC3(O)C(=O)C(C)=CC32)C2C(C)(C)C12OC(=O)CCCCCCCCC (centres undefined)    24
Nc1ccc(/C=C/c2ccccc2)cc1    -10
Clc1cc(Cl)c(NN=C(c2ccccc2)c2ccccc2)c(Cl)c1    43
O=C1C(=O)N(C(=O)c2ccc(Cl)c(Cl)c2)c2ccc(Cl)cc21    -9
CC(=O)OC12CC(C(F)(F)F)(C(F)(F)F)OC1(OC(C)=O)CC(C(F)(F)F)(C(F)(F)F)O2 (centres undefined)    18

Please fill in: growth inhibition reported for Cc1c(Cl)nc(-c2ccccc2)nc1C(=O)CCl = 22

Please fill in: growth inhibition reported for CC/C(=C(\CC)c1ccc(O)c(CN(C)C)c1)c1ccc(OC)cc1 = 0

Please fill in: growth inhibition reported for CC(=O)OC1C(C)OC(OC(=O)C2CCC3C(C2)OC2(CC(OC(=O)/C=C/c4ccccc4)C(C)CO2)C32CO2)C(OC2OC(C)C(O)C(OC(C)=O)C2O)C1O (centres undefined) = 45

Please fill in: growth inhibition reported for Cc1cc(Br)c(N2C3=C(CC4=C2CCCC4=O)C(=O)CCC3)c(Br)c1 = 10

====

Assay: NCI Yeast Anticancer Drug Screen. Data for the mlh1 rad18 strain (AID 175)
Conditions: S. cerevisiae mlh1 rad18 strain growth inhibition; at 5.0 µM (retest, dose inferred, filed as 0.5); active compounds read high
Experimental: Growth inhibition of yeast strains with defined genetic alterations is measured as a screen for potential anti-cancer activity. Selected strains with alterations in DNA damage repair or cell cycle control were exposed to compounds and growth inhibition was measured relative to vehicle treated controls. The strain used in this assay is mlh1 rad18
Compounds without any hit were thinned out: in the full panel of roughly 79,000, 15% have a hit.
QUANTITY KIND: growth inhibition (%)
Numeric answer only, unit % assumed.

Here are 2 molecules together with their reported answers.
OC1(C2CCCCC2)c2ccccc2Cc2ccccc21    7
COc1ccc(C(=O)C(CCC(=O)/C=C/c2ccccc2)S(C)(=O)=O)cc1 (centres undefined)    0

Please fill in: growth inhibition reported for CCOC(=O)N1CCN(c2cc(C)nc3cc(OC)ccc23)CC1 = 0

Please fill in: growth inhibition reported for CCOC(=O)C(C)(c1c(C)[nH]c2ccccc12)c1c(C)[nH]c2ccccc12 = 5

Please fill in: growth inhibition reported for C[CH2][Sn]([CH2]C)([O]C(=O)c1c(F)cccc1F)[O][Sn]([CH2]C)([CH2]C)[O]C(=O)c1c(F)cccc1F = 44

Please fill in: growth inhibition reported for CN(C)CC(C)(C)/C(=N\Nc1ccccc1)c1ccccc1 = 22

Please fill in: growth inhibition reported for O=C(Nc1cccc(Br)c1)Oc1cccc2cccnc12 = 64

Please fill in: growth inhibition reported for OCc1ccccc1CC(O)(c1ccccc1)c1ccccc1 = -20

Please fill in: growth inhibition reported for Cc1ccc(/C=C2\CN(C)CC3=C2NC(=S)NC3c2ccc(C)cc2)cc1 (centres undefined) = 26

Please fill in: growth inhibition reported for COc1cc2c(cc1OC)C(Cl)C(c1ccc(F)cc1)=C2Cl (centres undefined) = 0

Please fill in: growth inhibition reported for O=C(/C=C/C(=O)c1ccc(O)cc1)c1ccccc1 = -1

Please fill in: growth inhibition reported for O=C(O)/C(=C\c1ccc(F)cc1)c1ccccc1 = -12

Please fill in: growth inhibition reported for O=C1NOCC1N=Cc1cc(Cl)ccc1O (centres undefined) = 9

Please fill in: growth inhibition reported for O=[N+]([O-])c1ccc(N=Nc2ccc(O)cc2O)cc1 = 28

Please fill in: growth inhibition reported for O=C(c1ccccc1)c1ccccc1S(=O)(=O)Nc1ccccc1 = -2

Please fill in: growth inhibition reported for Cc1ccc(-n2cc(-c3ccc(Cl)cc3)c3c(N)ncnc32)cc1 = 30

====

Below, each of the compounds is paired with its reported growth inhibition value.
test: NCI Yeast Anticancer Drug Screen. Data for the cln2 rad14 strain (AID 165);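 further: 0% = growth equal to vehicle treated cultures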; conditions: S. cerevisiae cln2 rad14 strain, at 50.0 µM, active compounds read high
About 79,000 compounds went through this panel and 15% of them were active in at least one assay; those are over-represented in the sample as a whole.
Numeric answer only, unit % assumed.

CCC(=O)OCN1C(=O)C=CC1=O    98.9
CN(C)c1nc(N(C)C)oc(=[N+](C)C)n1    57.3
CCC1OC(OC)C=CC1=O (configuration not stated)    90.5
CC(=O)OCC(=O)[C@@]1(O)CC[C@H]2[C@@H]3CCC4=CC(=O)C=C[C@]4(C)[C@@]3(F)[C@@H](O)C[C@@]21C    66.2
O=[N+]([O-])c1cc2cccnc2c2ncccc12    62.2
CCOC(=S)SCc1nc2ccccc2[nH]1    69
C[C-](O)O.O/C(=C\[C-](O)c1ccccc1)c1ccccc1.O/C(=C\[C-](O)c1ccccc1)c1ccccc1.[Nd+3] (configuration not stated)    88.7
NNc1c(Cl)c(F)c(Cl)c(F)c1Cl    34.2
CCCCCCCCC1CCNCC1    72.5
Cc1c2c(c(C)c3ccncc13)S(=O)(=O)c1ccccc1-2    28.9

Please fill in: growth inhibition reported for CCOc1ccccc1N1C(=O)C=CC1=O = 90.5

Please fill in: growth inhibition reported for N#CSCc1ccc(CSC#N)c(Cl)c1 = 60.8

====

Below, each of the molecules is paired with its reported growth inhibition value.
test: NCI Yeast Anticancer Drug Screen. Data for the mlh1 rad18 strain (AID 175); conditions: S. cerevisiae mlh1 rad18 strain growth inhibition; at 5.0 µM (retest, dose inferred, filed as 0.5); active compounds read high
Compounds without any hit were thinned out: in the full panel of roughly 79,000, 15% have a hit.
Numeric answer only, unit % assumed.

Here are 5 molecules together with their reported answers.
O=S(=O)(Nc1ccnn1-c1ccccc1)c1ccc(N=Cc2c3ccccc3nc3cc(Cl)ccc23)cc1    10
O=C(Nc1ccc(F)cc1)ON=C1CCCCC1    69
CSc1ccc(/C=N/NC(N)=S)cc1    -119
O=C(/C=C/c1cccc(Cl)c1)c1ccccc1    10
Cc1ccc(-c2c3c(cc4cc(C)ccc24)C(=O)OC3=O)cc1    -2

Please fill in: growth inhibition reported for O=C1C=CC(=O)N1C1c2ccccc2-c2ccccc21 = 99

Please fill in: growth inhibition reported for COC(=O)c1[nH]c(=O)c(C#N)c(C(=O)OC)c1C(=O)c1ccc(Cl)c(Cl)c1 = -12

Please fill in: growth inhibition reported for CN(C)c1ccc2c(c1)Cc1cc(NC(=O)/C=C/C(=O)O)ccc1-2 = -2
